System: VDR homodimer (NR concentration 270 nM)
ASSAY DETAILS: PBM binding z-score (relative to random genomic background probes); higher = stronger binding; sequences stand for … in GC…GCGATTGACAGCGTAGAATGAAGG
Field: class. Source value: PBM binding z-score. Ranges: LOW (below 2), MEDIUM (2 to below 4), HIGH (4 or more)

{"SEQUENCE INPUT": "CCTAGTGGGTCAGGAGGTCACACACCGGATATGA", "CATEGORY LABEL": "MEDIUM"}
{"SEQUENCE INPUT": "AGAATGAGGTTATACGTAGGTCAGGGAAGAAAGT", "CATEGORY LABEL": "LOW"}
{"SEQUENCE INPUT": "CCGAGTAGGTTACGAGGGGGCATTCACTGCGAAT", "CATEGORY LABEL": "MEDIUM"}
{"SEQUENCE INPUT": "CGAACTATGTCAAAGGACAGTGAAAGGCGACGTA", "CATEGORY LABEL": "LOW"}
{"SEQUENCE INPUT": "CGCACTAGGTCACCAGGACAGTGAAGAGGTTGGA", "CATEGORY LABEL": "LOW"}
{"SEQUENCE INPUT": "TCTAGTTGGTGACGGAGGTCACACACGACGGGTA", "CATEGORY LABEL": "LOW"}
{"SEQUENCE INPUT": "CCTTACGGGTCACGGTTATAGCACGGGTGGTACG", "CATEGORY LABEL": "LOW"}
{"SEQUENCE INPUT": "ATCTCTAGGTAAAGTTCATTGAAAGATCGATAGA", "CATEGORY LABEL": "HIGH"}
{"SEQUENCE INPUT": "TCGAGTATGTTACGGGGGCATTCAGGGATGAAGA", "CATEGORY LABEL": "MEDIUM"}
{"SEQUENCE INPUT": "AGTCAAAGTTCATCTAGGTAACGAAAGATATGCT", "CATEGORY LABEL": "HIGH"}
{"SEQUENCE INPUT": "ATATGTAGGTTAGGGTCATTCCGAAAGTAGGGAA", "CATEGORY LABEL": "MEDIUM"}

Where do these numbers come from? They come from the supplement of paper PMC6555819.
